- CONDITION DESCRIPTION: in water, 323.15 K
ENDPOINT NAME: solubility (mole fraction)
No unit in the answer, please; the number alone is enough.

Return value of solubility (mole fraction) for input CC(C)(Oc1ccc(CCNC(=O)c2ccc(Cl)cc2)cc1)C(=O)O , no commentary.
7.83e-06

---

- CONDITION DESCRIPTION: in methanol, 323.15 K
ENDPOINT NAME: solubility (mole fraction)
No unit in the answer, please; the number alone is enough.

Return value of solubility (mole fraction) for input CC(C)(Oc1ccc(CCNC(=O)c2ccc(Cl)cc2)cc1)C(=O)O , no commentary.
0.00948

---

- CONDITION DESCRIPTION: in methanol, 313.15 K
ENDPOINT NAME: solubility (mole fraction)
No unit in the answer, please; the number alone is enough.

Return value of solubility (mole fraction) for input CC(C)(Oc1ccc(CCNC(=O)c2ccc(Cl)cc2)cc1)C(=O)O , no commentary.
0.00648

---

- CONDITION DESCRIPTION: in water, 283.15 K
ENDPOINT NAME: solubility (mole fraction)
No unit in the answer, please; the number alone is enough.

Return value of solubility (mole fraction) for input CC(C)(Oc1ccc(CCNC(=O)c2ccc(Cl)cc2)cc1)C(=O)O , no commentary.
1.23e-06

---

- CONDITION DESCRIPTION: in n-propanol, 298.15 K
ENDPOINT NAME: solubility (mole fraction)
No unit in the answer, please; the number alone is enough.

Return value of solubility (mole fraction) for input CC(C)(Oc1ccc(CCNC(=O)c2ccc(Cl)cc2)cc1)C(=O)O , no commentary.
0.00437

---

- CONDITION DESCRIPTION: in n-propanol, 283.15 K
ENDPOINT NAME: solubility (mole fraction)

Return value of solubility (mole fraction) for input CC(C)(Oc1ccc(CCNC(=O)c2ccc(Cl)cc2)cc1)C(=O)O , no commentary.
0.00246

---

- CONDITION DESCRIPTION: in isopropanol, 323.15 K
ENDPOINT NAME: solubility (mole fraction)
No unit in the answer, please; the number alone is enough.

Return value of solubility (mole fraction) for input CC(C)(Oc1ccc(CCNC(=O)c2ccc(Cl)cc2)cc1)C(=O)O , no commentary.
0.00832

---

- CONDITION DESCRIPTION: in methanol, 303.15 K
ENDPOINT NAME: solubility (mole fraction)
No unit in the answer, please; the number alone is enough.

Return value of solubility (mole fraction) for input CC(C)(Oc1ccc(CCNC(=O)c2ccc(Cl)cc2)cc1)C(=O)O , no commentary.
0.0043

---

- CONDITION DESCRIPTION: in water, 288.15 K
ENDPOINT NAME: solubility (mole fraction)
No unit in the answer, please; the number alone is enough.

Return value of solubility (mole fraction) for input CC(C)(Oc1ccc(CCNC(=O)c2ccc(Cl)cc2)cc1)C(=O)O , no commentary.
1.58e-06

---

- CONDITION DESCRIPTION: in isopropanol, 283.15 K
ENDPOINT NAME: solubility (mole fraction)
No unit in the answer, please; the number alone is enough.

Return value of solubility (mole fraction) for input CC(C)(Oc1ccc(CCNC(=O)c2ccc(Cl)cc2)cc1)C(=O)O , no commentary.
0.00152

---

- CONDITION DESCRIPTION: in n-propanol, 303.15 K
ENDPOINT NAME: solubility (mole fraction)
No unit in the answer, please; the number alone is enough.

Return value of solubility (mole fraction) for input CC(C)(Oc1ccc(CCNC(=O)c2ccc(Cl)cc2)cc1)C(=O)O , no commentary.
0.00524

---

- CONDITION DESCRIPTION: in methanol, 293.15 K
ENDPOINT NAME: solubility (mole fraction)

Return value of solubility (mole fraction) for input CC(C)(Oc1ccc(CCNC(=O)c2ccc(Cl)cc2)cc1)C(=O)O , no commentary.
0.00283

---

- CONDITION DESCRIPTION: in ethanol, 308.15 K
ENDPOINT NAME: solubility (mole fraction)

Return value of solubility (mole fraction) for input CC(C)(Oc1ccc(CCNC(=O)c2ccc(Cl)cc2)cc1)C(=O)O , no commentary.
0.00571

---

- CONDITION DESCRIPTION: in water, 318.15 K
ENDPOINT NAME: solubility (mole fraction)
No unit in the answer, please; the number alone is enough.

Return value of solubility (mole fraction) for input CC(C)(Oc1ccc(CCNC(=O)c2ccc(Cl)cc2)cc1)C(=O)O , no commentary.
6.3e-06

---

- CONDITION DESCRIPTION: in methanol, 298.15 K
ENDPOINT NAME: solubility (mole fraction)
No unit in the answer, please; the number alone is enough.

Return value of solubility (mole fraction) for input CC(C)(Oc1ccc(CCNC(=O)c2ccc(Cl)cc2)cc1)C(=O)O , no commentary.
0.00343
